The reported measurements were obtained from patent US20210317213A1.

target: Folate receptor-alpha (FOLR1) (human) (UniProt P15328); experiment: summary table; cell binding through the folate moiety
Sequence (P15328 25-234): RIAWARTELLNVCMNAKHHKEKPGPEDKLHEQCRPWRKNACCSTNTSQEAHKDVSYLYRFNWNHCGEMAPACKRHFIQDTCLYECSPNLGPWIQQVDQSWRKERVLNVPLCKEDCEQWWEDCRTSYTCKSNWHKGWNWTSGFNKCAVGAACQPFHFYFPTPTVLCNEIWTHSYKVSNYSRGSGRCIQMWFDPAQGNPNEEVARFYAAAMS
observable: FRα binding affinity (nM)
Give the value, in units of nM, as a plain number.

Query: Which FRα binding affinity value belongs to Fab1-HK129-LK172-BiFolate (Fab, V domains shown, pAF at LK172 (Kabat) conjugated to folate (oxime); pAF at HK129 (Kabat) conjugated to folate (oxime), From E. coli; carries two folates) VH: EVQLVESGGGLVQPGGSLRLSCAASGFTFNTYAMNWVRQAPGKGLEWVARIRSKYNNYATYYADSVKDRFTISRDDSKNILYLQMNSLKTEDTAVYYCVRHGNFGNSYVSWFAYWGQGTLVTVSS VL: QAVVTQEPSLTVSPGGTVTLTCRSSTGAVTTSNYANWVQQKPGQAPRGLIGGTNKRAPGTPARFSGSLLGGKAALTLSGAQPEDEAEYYCALWYSNLWVFGGGTKLTVLG ?
Result: 10
